Tested on: C5a induced human PMN chemotaxis
Protocol Details: C5a induced chemotaxis of human PMNs (microchamber assay)
Assay type: cell-based
Protocol Conditions: Homo sapiens; drug concentration: 10^−7 M (footnote a); read-out: % inhibition C5a induced PMN migration
Description: The compounds of the invention of formula (I) were evaluated in vitro for their ability to inhibit chemotaxis of polymorphonucleate leukocytes (hereinafter referred to as PMNs) and monocytes induced by the fractions of the complement C5a and C5a-desArg. […] The cell vitality was calculated by exclusion with Trypan blue, whilst the ratio of the circulating polymorphonucleates was estimated on the cytocentrifugate after staining with Diff Quick. […]
Assay Readout: inhibition at 0.1 µM (%)
Give just the numeric value; % need not be written.

[
  {
    "Compound": "CC(C(N)=O)c1cccc(NC(=O)c2ccccc2)c1 (stereo not drawn) [Example 19, 2-(3-benzoylamino)phenyl propionamide]",
    "Uom": "%",
    "inhibition at 0.1 µM": 34
  }
]

Qu. Form entry - test system: C5a induced human PMN chemotaxis; read-out: inhibition at 0.1 µM; compound: C[C@@H](C(=O)NS(C)(=O)=O)c1cccc(C(=O)c2ncco2)c1
Ans. 38

Qu. Param readout= inhibition at 0.1 µM; system= C5a induced human PMN chemotaxis; entry= C[C@@H](C(N)=O)c1cccc(-c2ccco2)c1 ; returns value.
Ans. 41

Qu. Hi! What's the reported inhibition at 0.1 µM for C[C@@H](C(N)=O)c1cccc(C(=O)Nc2c(Cl)cccc2Cl)c1 on C5a induced human PMN chemotaxis?
Ans. 57

---

Tested on: CXCL8 induced human PMN chemotaxis
Protocol Details: IL-8 (CXCL8) induced PMN chemotaxis
Assay type: cell-based
Protocol Conditions: drug concentration 10^−8M, Table 1
Decision: IL-8 (10^−8M) compared against 60; not below it gives Yes, below it gives No.

[
  {
    "Compound": "CC(C)Cc1ccc([C@@H](C)C(N)=O)cc1 [(R)-2-(4-isobutylphenyl)propionamide, reference compound]",
    "Study Target": "CXCL8 induced human PMN chemotaxis",
    "Category": "No"
  },
  {
    "Compound": "CC(C)Cc1ccc([C@@H](C)C(=O)NS(C)(=O)=O)cc1 [reference compound]",
    "Study Target": "CXCL8 induced human PMN chemotaxis",
    "Category": "Yes"
  },
  {
    "Compound": "C[C@@H](C(N)=O)c1cccc(C(=O)c2ccccc2)c1 [(R)-2-(3-benzoylphenyl)propionamide]",
    "Study Target": "CXCL8 induced human PMN chemotaxis",
    "Category": "No"
  }
]

Qu. Quick check: does C[C@@H](C(=O)NS(C)(=O)=O)c1cccc(C(=O)c2ccccc2)c1 have IL-8 (10^−8M) greater than or equal to 60?
Ans. No

---

Test system: C5a induced human PMN chemotaxis
Protocol Details: C5a induced chemotaxis of human PMNs (microchamber assay)
Type: cell-based
Protocol Conditions: Homo sapiens; drug concentration: 10^−8 M (footnote b); read-out: % inhibition C5a induced PMN migration
Threshold rule: inhibition at 0.01 µM greater than or equal to 50% is True; below that, False.

These solved cases illustrate the format of a correct answer.
[
  {
    "Smiles String": "C[C@@H](C(=O)NS(C)(=O)=O)c1cccc(C(=O)c2ccco2)c1",
    "Study Target": "C5a induced human PMN chemotaxis",
    "Category": "True"
  },
  {
    "Smiles String": "C[C@@H](C(N)=O)c1cccc(C(=O)c2cc3ccccc3o2)c1",
    "Study Target": "C5a induced human PMN chemotaxis",
    "Category": "True"
  },
  {
    "Smiles String": "C[C@@H](C(=O)Nc1nccs1)c1cccc(C(=O)c2ccco2)c1",
    "Study Target": "C5a induced human PMN chemotaxis",
    "Category": "True"
  },
  {
    "Smiles String": "C[C@@H](C(N)=O)c1ccc2c(c1)NC(=O)CC2",
    "Study Target": "C5a induced human PMN chemotaxis",
    "Category": "False"
  },
  {
    "Smiles String": "C[C@@H](C(N)=O)c1cccc(C(=O)c2ncco2)c1",
    "Study Target": "C5a induced human PMN chemotaxis",
    "Category": "False"
  }
]

Qu. Does Cc1ccc(C(=O)c2cccc([C@@H](C)C(=O)NS(C)(=O)=O)c2)o1 have a reported inhibition at 0.01 µM of at least 50%?
Ans. True

Qu. Entry C[C@@H](C(=O)NO)c1cccc(C(=O)c2ccco2)c1 : is its inhibition at 0.01 µM no less than 50%?
Ans. True

Qu. Determine whether this compound has inhibition at 0.01 µM no lower than 50%: C[C@@H](C(=O)NO)c1cccc(C(=O)c2nccs2)c1
Ans. False

Qu. hey, is inhibition at 0.01 µM for this one >= 50%? COc1ccccc1Oc1cccc([C@@H](C)C(N)=O)c1
Ans. True

Qu. Could you please find out whether C[C@@H](C(N)=O)c1cccc(C(=O)c2nccs2)c1 has inhibition at 0.01 µM that meets 50% or exceeds it?
Ans. False

Qu. Given C[C@@H](C(=O)Nc1ccccn1)c1cccc(C(=O)c2ccco2)c1 , state whether its inhibition at 0.01 µM is at least 50%.
Ans. False

---

System: C5a induced human PMN chemotaxis
Protocol Details: C5a induced chemotaxis of human PMNs (microchamber assay)
Type: cell-based
Protocol Conditions: Homo sapiens; drug concentration: 10^−7 M (footnote a); read-out: % inhibition C5a induced PMN migration
So basically, the class depends on measured inhibition at 0.1 µM, and the ranges are LOW (below 40%), MEDIUM (40% to below 60%), HIGH (60% or more)

Please review the entries below; each comes with its answer.
[
  {
    "Molecule": "C[C@@H](C(=O)NS(C)(=O)=O)c1cccc(C(=O)C2CCCC2)c1",
    "Category": "LOW"
  },
  {
    "Molecule": "C[C@@H](C(N)=O)c1cccc(S(=O)(=O)c2ccccc2)c1",
    "Category": "MEDIUM"
  },
  {
    "Molecule": "C[C@@H](C(N)=O)c1cccc(-c2ncco2)c1",
    "Category": "HIGH"
  },
  {
    "Molecule": "C[C@@H](C(=O)NCC(=O)O)c1cccc(C(=O)c2ccco2)c1",
    "Category": "MEDIUM"
  },
  {
    "Molecule": "CC(=O)Nc1cccc(C(C)C(N)=O)c1 (centres unmarked) [Example 18, 2-(3-acetylamino)phenyl propionamide]",
    "Category": "HIGH"
  }
]

Qu. Which class holds Cc1cccc(C)c1NC(=O)c1cccc([C@@H](C)C(N)=O)c1 ?
Ans. HIGH

Qu. Each molecule maps to one class by inhibition at 0.1 µM. Which class for C[C@@H](C(=O)NS(C)(=O)=O)c1cccc(C(=O)c2cccs2)c1 ?
Ans. LOW

Qu. State the class of the molecule shown: C[C@@H](C(N)=O)c1cccc(Nc2ccccc2Cl)c1
Ans. MEDIUM

---

Tested on: C5a induced human PMN chemotaxis
Protocol Details: C5a induced chemotaxis of human PMNs (microchamber assay)
Assay type: cell-based
Protocol Conditions: Homo sapiens; drug concentration: 10^−7 M (footnote a); read-out: % inhibition C5a induced PMN migration
We begin with a simple list: items and their reported inhibition at 0.1 µM.

[
  {
    "Molecule": "CC(NC(=O)[C@H](C)c1cccc(C(=O)c2ccco2)c1)C(=O)O (some centres unmarked)",
    "inhibition at 0.1 µM": "40%"
  },
  {
    "Molecule": "C[C@@H](C(N)=O)c1cccc(Nc2ccccn2)c1",
    "inhibition at 0.1 µM": "38%"
  },
  {
    "Molecule": "CC(C)C(=O)c1cccc([C@@H](C)C(N)=O)c1 [Example 1, (R)-2-[3-(isobutyryl)phenyl]propionamide]",
    "inhibition at 0.1 µM": "50%"
  },
  {
    "Molecule": "C[C@@H](C(N)=O)c1cccc(C(=O)Nc2ncccc2Cl)c1",
    "inhibition at 0.1 µM": "40%"
  }
]

Turning now to a further molecule:
Qu. Please report the recorded inhibition at 0.1 µM for C[C@@H](C(N)=O)c1cccc(C(=O)c2ccco2)c1 .
Ans. 65%

---

Tested on: C5a induced human PMN chemotaxis
Protocol Details: C5a induced chemotaxis of human PMNs (microchamber assay)
Assay type: cell-based
Protocol Conditions: Homo sapiens; drug concentration: 10^−7 M (footnote a); read-out: % inhibition C5a induced PMN migration
Reported inhibition at 0.1 µM values for the following compounds.
# unit: % | format: bare number

Below: 2 compounds and their reported inhibition at 0.1 µM.
[
  {
    "Compound": "C[C@@H](C(=O)Nc1nc(C(F)(F)F)cs1)c1cccc(C(=O)c2cc3ccccc3o2)c1 [Example 29]",
    "inhibition at 0.1 µM, %": 40
  },
  {
    "Compound": "COc1ccccc1Nc1cccc([C@@H](C)C(N)=O)c1 [Example 12]",
    "inhibition at 0.1 µM, %": 60
  }
]

Proceed to the following item.
Qu. So what's the measured inhibition at 0.1 µM for this one? C[C@@H](C(N)=O)c1cccc(C(=O)C2CCCC2)c1 [Example 2]
Ans. 59

Entry source: patent US7939521B2
